tested on: ACHN; experiment: NCI tumour cell line growth inhibition, 48 h
Active and inactive are the calls of the source. Rule as the data show it: active = GI50 up to about 1.1 µM and inactive = higher.
Outcomes: class 1 for active, class 0 for inactive

[[record]]
compound = "O=c1oc2c([N+](=O)[O-])cc([N+](=O)[O-])cc2c2ccccc12"
class_label = "class 0"

[[record]]
compound = "O=S1(=O)OCCOS(=O)(=O)C1F"
class_label = "class 0"

[[record]]
compound = "COc1cc(-c2cc(O)c3ccccc3n2)cc(OC)c1OC"
class_label = "class 0"

[[record]]
compound = "Clc1ccc(COC(Cn2ccnc2)c2ccc(Cl)cc2Cl)cc1 (stereo not given) [ECONAZOLE NITRATE]"
class_label = "class 0"

[[record]]
compound = "COc1ccc(C2(CC(C)C)CCN(S(=O)(=O)c3ccc(C)cc3)C2)cc1OC (stereo not given)"
class_label = "class 0"

[[record]]
compound = "CCC1=C(CC2NCCc3ccccc32)CC2c3cc(OC)c(OC)cc3CCN2C1 (stereo not given)"
class_label = "class 1"

[[record]]
compound = "CC(=O)Nc1ccccc1[S+]([O-])c1ccccc1 (stereo not given)"
class_label = "class 0"

[[record]]
compound = "COc1cc(O)c2c(O)c3c(c4c2c1[C@]1(C4)C(C)=CCCC1(C)C)[C@H](O)[C@@]1(O)CC(O)=C(C(N)=O)C(=O)[C@@]1(O)C3=O"
class_label = "class 1"

[[record]]
compound = "Nc1c2ccccc2nc2ccc3c(=O)cc(-c4ccccc4)oc3c12"
class_label = "class 1"

[[record]]
compound = "COC(=O)CCC1(C)C2CCC1(C)/C(=N/O)C2 (stereo not given)"
class_label = "class 0"


* * *

Measured GI50, listed per entry for reference.
test system: SK-MEL-2; assay: NCI tumour cell line growth inhibition, 48 h
Calls of active or inactive are those of the source. Cut-off read from the data, not from the text of the source: active = GI50 up to about 1.1 µM and inactive = higher.
recorded metric: GI50

[[record]]
compound = "Cc1ccccc1NC(=O)C(=O)C(c1cnc2ccc([N+](=O)[O-])cc2n1)[N+](=O)[O-] (stereo unspecified)"
assayed_system = "SK-MEL-2"
val = "> 100 µM (inactive)"

[[record]]
compound = "CNC(=S)/C(C#N)=C(\\N)N1CCCC1"
assayed_system = "SK-MEL-2"
val = "> 100 µM (inactive)"

[[record]]
compound = "COc1c2ccoc2c(S(=O)(=O)Nc2ccc(Cl)cc2)c2oc(C)cc(=O)c12"
assayed_system = "SK-MEL-2"
val = "> 76.2 µM (inactive)"

[[record]]
compound = "CC(C)(C)c1ccc(O)c(Br)c1"
assayed_system = "SK-MEL-2"
val = "> 100 µM (inactive)"

[[record]]
compound = "COc1cc(O)c2c(O)c3c(c4c2c1[C@]1(C4)C(C)=CCCC1(C)C)[C@H](O)[C@@]1(O)CC(O)=C(C(N)=O)C(=O)[C@@]1(O)C3=O"
assayed_system = "SK-MEL-2"
val = "0.236 µM (active)"

[[record]]
compound = "N#CC1(Cc2ccccc2Cl)c2ccccc2C=CN1C(=O)c1ccccc1 (stereo unspecified)"
assayed_system = "SK-MEL-2"
val = "> 100 µM (inactive)"

[[record]]
compound = "Cc1nc(=O)[nH]c2[nH][nH]c(=O)c12"
assayed_system = "SK-MEL-2"
val = "> 100 µM (inactive)"

[[record]]
compound = "COc1nc(Cl)nc(N[C@H](C)c2c3ccccc3cc3ccccc23)n1"
assayed_system = "SK-MEL-2"
val = "15.8 µM (inactive)"

[[record]]
compound = "CCN(C(=O)N[C@@H](Cc1ccccc1)C(=O)N[C@@H](CC(C)C)C(=O)OC)c1ccccc1"
assayed_system = "SK-MEL-2"
val = "61 µM (inactive)"

[[record]]
compound = "CCCCCc1cc(CCCC)sc1-c1ccco1"
assayed_system = "SK-MEL-2"
val = "> 83.9 µM (inactive)"

[[record]]
compound = "Cc1cn(CCCCCCOC(=O)NC(CCCNC(N)=O)C(=O)O)c(=O)[nH]c1=O (stereo unspecified)"
assayed_system = "SK-MEL-2"
val = "> 100 µM (inactive)"


* * *

tested on: LOX IMVI; assay: NCI tumour cell line growth inhibition, 48 h
The source made the active and inactive calls. Rule as the data show it: active = GI50 up to about 1.1 µM and inactive = higher.
Possible outcomes: active, inactive

[[record]]
molecule = "O=S1(=O)OCCOS(=O)(=O)C1F"
assayed_system = "LOX IMVI"
class_label = "inactive"

[[record]]
molecule = "O=C1c2ccccc2C(=O)N1C1(C(=O)NC2(C(=O)O)CCCC2)CCCC1"
assayed_system = "LOX IMVI"
class_label = "inactive"

[[record]]
molecule = "CCOC(=O)C(C)OC(=O)c1ccc(C)cc1 (stereo unspecified)"
assayed_system = "LOX IMVI"
class_label = "inactive"

[[record]]
molecule = "CC1=NN(c2cccc(Cl)c2)C2(C1=C/C=C/c1ccccc1)C(Cl)C(=O)N2c1nc2ccccc2s1 (stereo unspecified)"
assayed_system = "LOX IMVI"
class_label = "inactive"

[[record]]
molecule = "COC1CC(OC2C(C)OC(OC3C(C)OC(OC4C(C)OC(O[C@H]5CC[C@@]6(C)C(=CC[C@]7(O)[C@@H]6C[C@@H](O)[C@@]6(C)[C@]7(O)CC[C@@]6(O)C(C)=O)C5)CC4OC)CC3OC)CC2OC)OC(C)C1O (stereo partly specified)"
assayed_system = "LOX IMVI"
class_label = "inactive"

[[record]]
molecule = "CN(C(=O)/C=C/c1ccccc1)C1C2CN3CCC(O2)C13 (stereo unspecified)"
assayed_system = "LOX IMVI"
class_label = "inactive"

[[record]]
molecule = "N=C(N)/N=C(\\N)Nc1ccc(C(=O)O)cc1"
assayed_system = "LOX IMVI"
class_label = "inactive"

[[record]]
molecule = "COC1=CC(=O)c2c(c(COC(C)=O)cn2C)C1=O"
assayed_system = "LOX IMVI"
class_label = "active"

[[record]]
molecule = "O=C(NNC(=S)Nc1ccccc1)c1ccccc1Nc1ccccc1C(=O)NNC(=S)Nc1ccccc1"
assayed_system = "LOX IMVI"
class_label = "inactive"

[[record]]
molecule = "CCN(C(=O)N[C@@H](Cc1ccccc1)C(=O)N[C@@H](CC(C)C)C(=O)OC)c1ccccc1"
assayed_system = "LOX IMVI"
class_label = "inactive"

[[record]]
molecule = "O=[N+]([O-])c1ccc(C2ON=C(c3ccccc3)N2C23CC4CC(CC(C4)C2)C3)cc1 (stereo unspecified)"
assayed_system = "LOX IMVI"
class_label = "inactive"

[[record]]
molecule = "NC(=O)CNC(=O)[C@@H]1CC(OCCC(=O)O)CN1C(=O)C1CCCN1C(=O)OCc1ccccc1 (stereo partly specified)"
assayed_system = "LOX IMVI"
class_label = "inactive"

[[record]]
molecule = "C=C(C(=O)O)C1CCC(CC/C=C(\\C)CC/C=C(\\C)CCC=C(C)C)CO1 (stereo unspecified)"
assayed_system = "LOX IMVI"
class_label = "inactive"

[[record]]
molecule = "CN(C)CCNC(=O)c1cccc2c1nc(-c1ccccc1)c1ccccc12"
assayed_system = "LOX IMVI"
class_label = "inactive"

[[record]]
molecule = "COc1cc(C2S/C(=C/c3ccccc3)C(=O)N2c2ccc(Cl)c(Cl)c2)cc(OC)c1OC (stereo unspecified)"
assayed_system = "LOX IMVI"
class_label = "inactive"

[[record]]
molecule = "Cc1ccc(C(=O)NC(C)C)cc1/N=N/N(C)C"
assayed_system = "LOX IMVI"
class_label = "inactive"

[[record]]
molecule = "Oc1ccc(O)c(-n2cccn2)c1"
assayed_system = "LOX IMVI"
class_label = "inactive"

[[record]]
molecule = "O=C(Nc1cccc(NC(=O)c2cc(=O)c3ccccc3o2)n1)c1cc(=O)c2ccccc2o1"
assayed_system = "LOX IMVI"
class_label = "inactive"

[[record]]
molecule = "c1ccc(C2=NCCN2)c(C2=NCCN2)c1"
assayed_system = "LOX IMVI"
class_label = "inactive"

[[record]]
molecule = "COC(=O)/C=C\\C1C(C(=O)OC)C2(C(=O)OC)CCC1(C(=O)OC)N2 (stereo unspecified)"
assayed_system = "LOX IMVI"
class_label = "inactive"

[[record]]
molecule = "N#Cc1cnsc1"
assayed_system = "LOX IMVI"
class_label = "inactive"


* * *

test system: MOLT-4; assay: NCI tumour cell line growth inhibition, 48 h
Activity calls are given as the source filed them. Rule as the data show it: active = GI50 up to about 1.1 µM and inactive = higher.
recorded metric: GI50

[[record]]
compound = "N#CC1(Cc2ccccc2Cl)c2ccccc2C=CN1C(=O)c1ccccc1 (stereo not given)"
val = "28.4 µM (inactive)"

[[record]]
compound = "CC(C)(C)OC(=O)n1cc(C2CN(O)C(=O)C23CCC(=O)N3Cc2ccccc2)c2ccccc21 (stereo not given)"
val = "> 100 µM (inactive)"

[[record]]
compound = "Cc1nc2ccc(Cl)cc2c2c1CCN2c1ccc(F)cc1"
val = "4.72 µM (inactive)"

[[record]]
compound = "Cc1cccc2sc(-c3ccc(O)cc3)nc12"
val = "43.7 µM (inactive)"

[[record]]
compound = "[N-]=[N+]=NC1(c2ccccc2)C(=O)C(Cl)=C(c2ccccc2)N(c2ccccc2)C1=O (stereo not given)"
val = "58.5 µM (inactive)"

